assay: stimulators of insulin release from INS-1E, primary screen, cell-based, 5 mM glucose, NPC library (AID 1117329); conditions: rat INS-1E insulin secretion, at 10 µM, stronger effect = higher value
OBSERVATION TYPE: insulin secretion stimulation (%)
The reply should be a number in %, with the unit left off.

Query: Quote insulin secretion stimulation reported for O=C1NCN(c2ccccc2)C12CCN(CC1COc3ccccc3O1)CC2 (stereo not drawn) please.
Response: 1.2

Query: Quote insulin secretion stimulation reported for COCC(C)N(C(=O)CCl)c1c(C)csc1C (stereo not drawn) please.
Response: 0.7

---

molecular target: Mitogen-activated protein kinase 7 (Homo sapiens) (UniProt Q13164); assay: ERK5 transactivation activators in reporter cells, primary screen, cell-based, HTS (AID 1508626); conditions: HeLa Gal4-ERK5 transactivation, 18 h, at 5 µM, stronger effect = higher value;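 further: luciferase driven by Gal4-ERK5 fusion binding five Gal4 sites before minimal TATA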
Sequence (Q13164 whole entry, looked up, the tested form may be a part): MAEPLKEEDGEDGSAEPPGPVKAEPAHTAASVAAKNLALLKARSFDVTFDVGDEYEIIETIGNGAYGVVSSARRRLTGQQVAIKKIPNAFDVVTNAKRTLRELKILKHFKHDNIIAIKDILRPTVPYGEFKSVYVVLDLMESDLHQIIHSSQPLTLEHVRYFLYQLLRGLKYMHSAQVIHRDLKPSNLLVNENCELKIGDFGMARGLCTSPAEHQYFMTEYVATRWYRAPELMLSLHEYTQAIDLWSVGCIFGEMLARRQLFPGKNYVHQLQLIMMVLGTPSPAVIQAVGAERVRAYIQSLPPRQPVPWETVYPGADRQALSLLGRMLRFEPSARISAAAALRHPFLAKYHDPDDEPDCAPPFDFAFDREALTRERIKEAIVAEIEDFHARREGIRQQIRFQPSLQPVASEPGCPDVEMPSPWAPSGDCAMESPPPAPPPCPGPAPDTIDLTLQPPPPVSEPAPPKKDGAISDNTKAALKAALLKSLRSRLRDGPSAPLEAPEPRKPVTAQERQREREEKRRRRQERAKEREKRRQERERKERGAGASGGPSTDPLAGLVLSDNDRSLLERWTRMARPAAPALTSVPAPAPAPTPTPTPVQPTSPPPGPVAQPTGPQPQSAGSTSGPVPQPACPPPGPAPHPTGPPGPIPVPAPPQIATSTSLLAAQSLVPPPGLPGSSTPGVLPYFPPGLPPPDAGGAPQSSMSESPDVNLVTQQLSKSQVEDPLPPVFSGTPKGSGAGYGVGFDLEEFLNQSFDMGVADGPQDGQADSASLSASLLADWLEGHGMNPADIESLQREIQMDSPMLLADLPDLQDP
Activity calls are given as the source filed them.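 Rule for the calls: active = luciferase signal above three times the same-plate solvent-only control wells; inactive = the rest.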
OBSERVATION TYPE: luciferase signal

MOLECULE: COc1cccc([C@@]2(O)CCCC[C@@H]2CN(C)C)c1
luciferase signal: 40 AU (inactive)
//
MOLECULE: Cc1ccc(C[N+](C)(C)C)o1
luciferase signal: 100 AU (inactive)
//
MOLECULE: N#C/C(=C\c1ccc(O)cc1)C(=O)O
luciferase signal: 144 AU (inactive)
//
MOLECULE: CN(C)C(=O)Oc1cc(OC(=O)N(C)C)cc(C(O)CNC(C)(C)C)c1 (configuration not stated)
luciferase signal: 80 AU (inactive)
//
MOLECULE: CC[C@@]1(O)C(=O)OCc2c1cc1n(c2=O)Cc2cc3ccccc3nc2-1
luciferase signal: 28 AU (inactive)
//
MOLECULE: O=C(O)CF
luciferase signal: 80 AU (inactive)

Query: Quote luciferase signal reported for COc1c2c(cc3c1OCO3)CC[N+](C)=C2 please.
Response: 20 AU (inactive)
